System: ISG54 ISRE-luc reporter
EXPERIMENTAL PROTOCOL: ISG54 ISRE-luc reporter activation in HEK293 (SZ14) cells, screen for STING agonists
Format: cell-based
ASSAY SETUP: digitonin buffer, 5 hours, read-out: IRF EC50
Would you mind telling me the reported EC50 of each entry?

Could you tell me which EC50 is on file for CCCCCCCCCCCCOc1ccc(C(=O)Oc2ccc(CS[P@@]3(=O)OC[C@H]4O[C@@H](n5cnc6c(N)ncnc65)[C@H](F)[C@@H]4OP(=O)(O)OC[C@H]4O[C@@H](n5ccc(=O)[nH]c5=O)[C@H](F)[C@@H]4O3)cc2)cc1 [Cmd 22] ?
< 0.05 µM

Can you look up the measured EC50 of CCCCCCCCCCOc1ccc(Oc2ccc(CSP3(=O)OC[C@H]4O[C@@H](n5cnc6c(N)ncnc65)[C@H](F)[C@@H]4OP(=O)(O)OC[C@H]4O[C@@H](n5ccc(=O)[nH]c5=O)[C@H](F)[C@@H]4O3)cc2)cc1 (stereo partly drawn) [Cmd 29] for me?
0.05 to 0.5 µM

Please look up its EC50: CCCCCCCCCCOc1ccc(C(=O)Oc2ccc(CSP3(=O)OC[C@H]4O[C@@H](n5cnc6c(N)ncnc65)C[C@@H]4OP(=O)(SCc4ccc(OC(=O)c5ccc(OCCCCCCCCCC)cc5)cc4)OC[C@H]4O[C@@H](n5ccc(=O)[nH]c5=O)[C@H](OC)[C@@H]4O3)cc2)cc1 (stereo partly drawn) [Cmd 20]
> 2 µM

Which EC50 value is on record for CCCCCCCCCCOc1ccc(C(=O)NCc2ccc(CSP3(=O)OC[C@H]4O[C@@H](n5cnc6c(N)ncnc65)[C@H](F)[C@@H]4OP(=O)(O)OC[C@H]4O[C@@H](n5ccc(=O)[nH]c5=O)[C@H](F)[C@@H]4O3)cc2)cc1 (stereo partly drawn) [Cmd 31] ?
0.5 to 1 µM

Reported EC50 for CCCCCCCCCCCCOc1ccc(C(=O)Oc2ccc(CSP3(=O)OC[C@H]4O[C@@H](n5cnc6c(N)ncnc65)[C@H](F)[C@@H]4OP(=O)(O)OC[C@H]4O[C@@H](n5ccc(=O)[nH]c5=O)[C@H](F)[C@@H]4O3)cc2)cc1.N (stereo partly drawn) [Cmd 15] : what is it?
< 0.05 µM

Need EC50 of CCCCCCCCCCOc1ccc(C(=O)Oc2ccc(CS[P@]3(=O)OC[C@H]4O[C@@H](n5cnc6c(N)ncnc65)[C@H](F)[C@@H]4OP(=O)(O)OC[C@H]4O[C@@H](n5ccc(=O)[nH]c5=O)[C@H](F)[C@@H]4O3)cc2)cc1.N (single isomer, unassigned) [Cmd 1A] , thanks.
< 0.05 µM
